- Test system: LM8 murine osteosarcoma cells
- Assay notes: CCK-8 cell viability
- Type: cell-based
- Assay setup: 48 h, pH not stated, mean ± SD, n = 3
Readout label: IC50
Could you give the number and then its unit, please?

**Q:** Return reported IC50; argument: COc1cccc2c1C(=O)c1c(O)c3c(c(O)c1C2=O)C[C@@](O)(C(=O)CO)C[C@@H]3O[C@H]1C[C@H](N)[C@H](O)[C@H](C)O1.Cl [free DOX, Doxorubicin hydrochloride]
**A:** 13.3 µM
